# TGT: human Kv4.3/KChIP2.2 potassium channel (Homo sapiens)
# Construct: expressed in transfected cells
# METHOD SUMMARY: Whole cell patch clamp, CHO-K1 cells stably expressing human Kv4.3/KChIP2.2
# Assay type: cell-based
# CONDITION NOTES: Kv4.3 mediated current, charge; patch clamp; read-out: Kv4.3 charge IC50
API: label(entry) gives YES if the entry's IC50 is strictly smaller than 2 µM; on equality or larger values it gives NO.

Consider the following illustrative entries.
COMPOUND: COc1ccccc1Nc1nc(C)c(C(=O)N[C@H](C)c2ccc3ccccc3c2)s1 [Compound 53]
CLASS NAME: NO
//
COMPOUND: Cc1ccccc1Nc1nc(C)c(C(=O)N[C@@H](C)c2ccc3ccccc3c2)s1 [Compound 32]
CLASS NAME: NO
//
COMPOUND: Cc1nc(Nc2ccc(Cl)cc2)sc1C(=O)N[C@@H](C)c1ccc2ccccc2c1 [Compound 54]
CLASS NAME: NO
//
COMPOUND: Cc1nc(Nc2ccc(Br)cc2)sc1C(=O)NCc1cccc2ccccc12 [Compound 56]
CLASS NAME: YES
//
COMPOUND: COc1cccc([C@@H](C)NC(=O)c2sc(Nc3ccc(Br)cc3)nc2C)c1 [Compound 21]
CLASS NAME: YES

Prompt: Could you please tell me whether IC50 recorded for Cc1nc(Nc2ccc(Br)cc2)sc1C(=O)NCc1ccncc1 [Compound 57] is less than 2 µM?
Response: NO

Prompt: Confirm or reject: IC50 of COc1ccc(CNC(=O)c2sc(Nc3ccc(Br)cc3)nc2C)cc1OC [Compound 61] lies strictly below 2 µM
Response: YES

Prompt: Please determine if COc1ccc(Cl)cc1Nc1nc(C)c(C(=O)N[C@@H]2CCC[C@H]2OCc2ccccc2)s1 [Compound 35] is below 2 µM in terms of IC50.
Response: NO

Prompt: I'd appreciate it if you could check whether Cc1nc(Nc2ccc(Br)cc2)sc1C(=O)NCc1ccccc1 [Compound 20] has IC50 smaller than 2 µM.
Response: YES

Prompt: Please check: IC50 for Cc1nc(Nc2ccc(Br)cc2)sc1C(=O)NCc1ccc([N+](=O)[O-])cc1 [Compound 23] , strictly under 2 µM or not?
Response: YES

Prompt: In plain terms, does Cc1nc(Nc2ccc(Br)cc2)sc1C(=O)N[C@H]1CCC[C@@H]1OCc1ccccc1 [Compound 26] come in under 2 µM for IC50?
Response: NO

Prompt: I'd appreciate it if you could check whether CCCN(Cc1ccc([N+](=O)[O-])cc1)C(=O)c1sc(Nc2ccc(Br)cc2)nc1C [Compound 28] has IC50 smaller than 2 µM.
Response: YES

* * *

# TGT: human Kv4.3/KChIP2.2 potassium channel (Homo sapiens, UniProt Q9UK17)
# Construct: expressed in transfected cells
# Sequence (Q9UK17 whole entry): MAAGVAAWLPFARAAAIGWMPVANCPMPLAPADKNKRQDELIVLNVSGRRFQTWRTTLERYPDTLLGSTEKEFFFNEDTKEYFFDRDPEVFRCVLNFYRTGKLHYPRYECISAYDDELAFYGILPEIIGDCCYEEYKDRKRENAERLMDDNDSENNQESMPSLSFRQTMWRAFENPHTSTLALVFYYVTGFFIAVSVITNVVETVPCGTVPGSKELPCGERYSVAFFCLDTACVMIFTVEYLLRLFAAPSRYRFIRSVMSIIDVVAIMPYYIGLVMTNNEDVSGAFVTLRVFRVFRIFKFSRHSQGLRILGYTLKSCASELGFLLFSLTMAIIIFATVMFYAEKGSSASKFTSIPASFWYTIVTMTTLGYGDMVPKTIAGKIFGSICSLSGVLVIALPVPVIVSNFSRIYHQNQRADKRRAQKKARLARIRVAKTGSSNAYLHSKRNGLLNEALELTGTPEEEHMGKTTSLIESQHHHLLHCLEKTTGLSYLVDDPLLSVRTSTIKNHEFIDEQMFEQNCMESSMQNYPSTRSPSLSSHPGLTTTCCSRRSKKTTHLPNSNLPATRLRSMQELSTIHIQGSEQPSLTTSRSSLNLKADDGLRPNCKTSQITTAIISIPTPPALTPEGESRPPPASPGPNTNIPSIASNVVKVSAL
# METHOD SUMMARY: Whole cell patch clamp, CHO-K1 cells stably expressing human Kv4.3/KChIP2.2
# Type: cell-based
# CONDITION NOTES: CHO-K1; remaining current measured after application of the compound and relative to the blank; read-out: Kv4.3 charge in %
OBSERVATION TYPE: remaining activity at 1 µM (%)
Kindly answer with a numeric value in %, unit omitted.

SMILES CODE: COc1ccccc1Nc1nc(C)c(C(=O)NCc2ccc(CNC(C)=O)cc2)s1
TGT: human Kv4.3/KChIP2.2 potassium channel (Homo sapiens, UniProt Q9UK17)
remaining activity at 1 µM / %: 85
//
SMILES CODE: COc1ccccc1Nc1nc(C)c(C(=O)NCc2ccc(N(C)C)cc2)s1
TGT: human Kv4.3/KChIP2.2 potassium channel (Homo sapiens, UniProt Q9UK17)
remaining activity at 1 µM / %: 61
//
SMILES CODE: COc1ccccc1Nc1nc(C)c(C(=O)NCc2ccc(Oc3ccccc3)cc2)s1
TGT: human Kv4.3/KChIP2.2 potassium channel (Homo sapiens, UniProt Q9UK17)
remaining activity at 1 µM / %: 76

Prompt: Which measured remaining activity at 1 µM value corresponds to Cc1nc(Sc2ccccc2)sc1C(=O)N[C@H]1CCC[C@@H]1OCc1ccccc1 ?
Response: 51

Prompt: I'd like to know its remaining activity at 1 µM. The molecule in question is Cc1nc(NC(=O)c2ccc(C(C)(C)C)cc2)sc1C(=O)N[C@H]1CCC[C@@H]1OCc1ccccc1
Response: 73

Prompt: // lookup remaining activity at 1 µM for CCOC(=O)c1cccc(Nc2nc(C)c(C(=O)N[C@H]3CCC[C@@H]3OCc3ccccc3)s2)c1
Response: 55

Prompt: Using the record for Cc1nc(Nc2ccc3c(c2)OCCO3)sc1C(=O)N[C@H]1CCC[C@@H]1OCc1ccccc1 , report its remaining activity at 1 µM.
Response: 61

Prompt: Sample COc1ccccc1Nc1nccc(C(=O)N[C@H]2CCC[C@@H]2OCc2ccccc2)n1 — what was its remaining activity at 1 µM?
Response: 62

* * *

melting point overview

Check out these entries, answers already filled in.
SMILES CODE: COc1ccccc1Nc1nc(C)c(C(=O)NCc2cccc(C)c2)s1
OBSERVATION TYPE: melting point
ENDPOINT VALUE: 148.1 to 149.9 °C
--
SMILES CODE: COc1ccccc1Nc1nc(C)c(C(=O)NCc2ccc(Oc3ccccc3)cc2)s1
OBSERVATION TYPE: melting point
ENDPOINT VALUE: 159.7 to 162.4 °C
--
SMILES CODE: COc1ccccc1Nc1nc(C)c(C(=O)NCc2ccc3c(c2)CCO3)s1
OBSERVATION TYPE: melting point
ENDPOINT VALUE: 136.5 to 140.1 °C
--
SMILES CODE: COc1ccccc1Nc1nc(C)c(C(=O)NCc2ccc(C(C)(C)C)cc2)s1
OBSERVATION TYPE: melting point
ENDPOINT VALUE: 168.5 to 169.4 °C

Prompt: Quick check: melting point of COc1ccccc1Nc1nc(C)c(C(=O)NCc2ccc(N(C)C)cc2)s1 ?
Response: 183.3 to 185.2 °C

* * *

# TGT: human Kv4.3/KChIP2.2 potassium channel (Homo sapiens)
# Construct: expressed in transfected cells
# METHOD SUMMARY: Whole cell patch clamp, CHO-K1 cells stably expressing human Kv4.3/KChIP2.2
# Assay type: cell-based
# CONDITION NOTES: CHO-K1; remaining peak height measured after application of the compound and relative to the blank; read-out: Kv4.3 peak in %
OBSERVATION TYPE: remaining activity at 1 µM (%)
# output: bare number, implied unit %

Please review the following examples before continuing.
SMILES CODE: COc1ccccc1Nc1nc(C)c(C(=O)NCc2ccccc2)s1
OBSERVATION TYPE: remaining activity at 1 µM
UNIT ANNOTATION: %
ENDPOINT VALUE: 95

SMILES CODE: COc1ccccc1Nc1nc(C)c(C(=O)NCc2ccccc2SC)s1
OBSERVATION TYPE: remaining activity at 1 µM
UNIT ANNOTATION: %
ENDPOINT VALUE: 96

SMILES CODE: Cc1nc(NC(=O)c2ccc(C(C)(C)C)cc2)sc1C(=O)N[C@H]1CCC[C@@H]1OCc1ccccc1
OBSERVATION TYPE: remaining activity at 1 µM
UNIT ANNOTATION: %
ENDPOINT VALUE: 97

SMILES CODE: Cc1nc(Nc2ccc3occc3c2)sc1C(=O)N[C@H]1CCC[C@@H]1OCc1ccccc1
OBSERVATION TYPE: remaining activity at 1 µM
UNIT ANNOTATION: %
ENDPOINT VALUE: 89

SMILES CODE: COc1ccccc1Nc1nc(C)c(C(=O)N2CCC(c3ccccc3OC)CC2)s1
OBSERVATION TYPE: remaining activity at 1 µM
UNIT ANNOTATION: %
ENDPOINT VALUE: 100

SMILES CODE: COc1ccccc1Nc1nc(C)c(C(=O)NCc2c(C)cccc2Cl)s1
OBSERVATION TYPE: remaining activity at 1 µM
UNIT ANNOTATION: %
ENDPOINT VALUE: 90

Prompt: # query: remaining activity at 1 µM of entry Cc1nc(Nc2ccc3c(c2)OCCO3)sc1C(=O)N[C@H]1CCC[C@@H]1OCc1ccccc1
Response: 91

Prompt: What value of measured remaining activity at 1 µM is listed for COc1ccccc1Nc1nc(C)c(C(=O)N2Cc3ccccc3C2)s1 ?
Response: 99

* * *

Each record here notes measured Relative remaining current (mean after 8-10 min).
# TGT: Kv1.5 potassium channel (Homo sapiens)
# Construct: expressed in transfected cells
# Sequence (P22460 whole entry): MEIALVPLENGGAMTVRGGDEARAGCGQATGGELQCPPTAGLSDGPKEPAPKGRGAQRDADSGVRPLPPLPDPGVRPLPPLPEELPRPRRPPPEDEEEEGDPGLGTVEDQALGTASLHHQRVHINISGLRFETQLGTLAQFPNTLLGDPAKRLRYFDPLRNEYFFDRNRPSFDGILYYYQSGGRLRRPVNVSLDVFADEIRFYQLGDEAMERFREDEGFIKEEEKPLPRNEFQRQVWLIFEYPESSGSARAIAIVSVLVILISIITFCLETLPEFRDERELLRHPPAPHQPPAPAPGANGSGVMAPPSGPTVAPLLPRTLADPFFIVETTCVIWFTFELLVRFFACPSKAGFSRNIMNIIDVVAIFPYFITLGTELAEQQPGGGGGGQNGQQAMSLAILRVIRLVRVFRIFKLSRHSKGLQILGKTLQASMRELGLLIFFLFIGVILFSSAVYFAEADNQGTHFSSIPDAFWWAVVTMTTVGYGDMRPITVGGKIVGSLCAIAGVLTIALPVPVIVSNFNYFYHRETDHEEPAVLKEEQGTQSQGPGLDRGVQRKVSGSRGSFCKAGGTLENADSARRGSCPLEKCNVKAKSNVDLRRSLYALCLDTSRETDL
# METHOD SUMMARY: Patch clamp, CHO cells stably expressing the Kv1.5 potassium channel
# Assay type: cell-based
# CONDITION NOTES: 1 μM; Kv1.5 mediated current
Answer in %, number only, no unit symbol.

Please review the following examples before continuing.
SMILES CODE: Cc1nc(Sc2ccccc2)sc1C(=O)N[C@H]1CCC[C@@H]1OCc1ccccc1
UNIT ANNOTATION: %
ENDPOINT VALUE: 44

SMILES CODE: COc1ccccc1Nc1ccc(C(=O)N[C@H]2CCC[C@@H]2OCc2ccccc2)s1
UNIT ANNOTATION: %
ENDPOINT VALUE: 77

Prompt: Look at this molecule and give its reported Relative remaining current (mean after 8-10 min). Cc1nc(Nc2cccc3cccnc23)sc1C(=O)N[C@H]1CCC[C@@H]1OCc1ccccc1
Response: 79

Prompt: Dear colleague, I am looking for the recorded Relative remaining current (mean after 8-10 min) of the following molecule: Cc1nc(Nc2ccc3occc3c2)sc1C(=O)N[C@H]1CCC[C@@H]1OCc1ccccc1
Response: 86

Source: patent US20080125432A1
